In this section, each of the variants is paired with its reported abundance fitness.
B1: Probable E3 ubiquitin-protein ligase MID2, residues 191 to 235; numbered along this chain, Q9UJV3 (parent)
chain: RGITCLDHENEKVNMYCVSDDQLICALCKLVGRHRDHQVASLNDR

Variants of: B1
Assay remarks: abundance fitness (aPCA) (normalised: wild type 0, dead -1); higher = more abundant; growth selection in yeast, the domain comes from the species named
Measurement context: Homo sapiens

Seq string: RGITCLDHENEKVNMYCVSDDQLICALCKLVGRHWDHQVASLNDR [R35W]
abundance fitness: -0.602

Seq string: EGITCLDHENEKVNMYCVSDDQLICALCKLVGRHRDHQVASLNDR [R1E]
abundance fitness: 0.019

Seq string: RGITCLDHENEKVNMYCVSDDQLICALCKLVGRHRDHQVASLNDQ [R45Q]
abundance fitness: 0.033

Seq string: RGITCLDHENEKVNMYCVSDDQLICALDKLVGRHRDHQVASLNDR [C28D]
abundance fitness: -0.469

Seq string: RGITCKDHENEKVNMYCVSDDQLICALCKLVGRHRDHQVASLNDR [L6K]
abundance fitness: 0.213

Seq string: RGITCLDHENEKVNMKCVSDDQLICALCKLVGRHRDHQVASLNDR [Y16K]
abundance fitness: 0.54

Seq string: RGITCLDHENEKVNMYCVSDEQLICALCKLVGRHRDHQVASLNDR [D21E]
abundance fitness: -0.056
